- method_description: Shake-flask solubility (UV-Vis)
- Format: physicochemical
- condition_notes: phosphate buffered saline (PBS), aqueous buffer, thermodynamic from solid; PBS pH 7.4, 37 °C; read-out: Solubility PBS
- Procedure: Verapamil was used as internal control. More detailed information is available in the Supplementary Material. UV-Visible spectrums were measured with a UV3600 UV -Vis-NIR spectrophotometer in a range of 500 -200 nm using a quartz cuvette. The measurements were determined at λ values corresponding to the maximum of absorption . Baselines were determined with MeOH :media (1:1) mixture . Sample concentrations were determined using maximum absorption value s. All compounds were tested in […]
assay_readout: solubility at 24 h (µg/mL)
The response must be a number in µg/mL with no trailing unit.

[Q] Data request, read-out solubility at 24 h, for OCCN1CCN(c2nc(-c3ccccc3)nc3ccccc23)CC1 [Compound 1.9]
[A] 300

* * *

- method_description: Bovine plasma stability (HPLC-MS)
- Type: in vitro ADME
- condition_notes: 120 min incubation, read-out: Stability t1/2 Bovine plasma
assay_readout: half-life

[Q] Item OCCN1CCN(c2nc(-c3ccccc3)nc3ccccc23)CC1 [Compound 1.9] has what recorded half-life?
[A] > 2 h

* * *

- method_description: Mouse plasma stability (HPLC-MS)
- Format: in vitro ADME
- condition_notes: mouse/murine plasma, 120 min incubation; read-out: Stability t1/2 Mouse/murine plasma
assay_readout: half-life

[Q] Dear colleague, I am looking for the recorded half-life of the following molecule: OCCN1CCN(c2nc(-c3ccccc3)nc3ccccc23)CC1
[A] > 2 h
